Target: β-conglutin (Lupinus albus (white lupin)?)
Sequence: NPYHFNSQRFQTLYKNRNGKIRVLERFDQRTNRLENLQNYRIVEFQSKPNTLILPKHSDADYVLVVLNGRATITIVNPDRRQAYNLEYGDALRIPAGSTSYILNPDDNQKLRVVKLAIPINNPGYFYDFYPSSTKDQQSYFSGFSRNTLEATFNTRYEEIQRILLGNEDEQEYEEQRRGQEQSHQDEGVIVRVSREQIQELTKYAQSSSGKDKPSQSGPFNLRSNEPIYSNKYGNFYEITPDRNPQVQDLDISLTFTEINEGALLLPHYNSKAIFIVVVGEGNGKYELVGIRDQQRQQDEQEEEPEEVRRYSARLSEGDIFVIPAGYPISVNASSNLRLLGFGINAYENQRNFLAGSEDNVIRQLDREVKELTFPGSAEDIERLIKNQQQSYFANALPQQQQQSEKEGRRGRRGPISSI
Experiment: MST
Settings: dAEIn as in HB8 except three central positions following the primer, which are natural dA; Binding buffer, salt, pH and temperature not given in the material
parameter: Kd (nM)
Number only, in nM; omit the unit.

For the sequence AGCTCCAGAAGATAAATTACAGGCCAAGATCTCGCGAGTTCCCAACAGGGCAGAGAGATGCCCGACACCAGTGCAACTAGGATACTATGACCCC [HB8_M1] , what Kd is on record?
134

The origin of these recorded values is paper PMC12582157.
